Tested on: Staphylococcus aureus, MRSA (ATCC 33591)
Experiment: Antibacterial MIC assay (microbroth dilution, CLSI)
Format: cell-based
Conditions: microbroth dilution, cation-adjusted Mueller-Hinton broth, 35° C. for 16-20 hours, read-out: MIC Staphylococcus aureus, MRSA (ATCC 33591)
readout_name: MIC

molecule	study_target	readout_name	reported_measurement
C=C[C@]1(C)C[C@@H](OC(=O)NCc2ccc3c(c2)B(O)OC3)[C@]2(C)[C@H](C)CC[C@]3(CCC(=O)[C@H]32)[C@@H](C)[C@@H]1O [Compound 56]	Staphylococcus aureus, MRSA (ATCC 33591)	MIC	< 0.25 µg/mL
C=C[C@]1(C)C[C@@H](OC(=O)COc2ccc3c(c2)B(O)N(C(=O)OC)N=C3)[C@]2(C)[C@H](C)CC[C@]3(C[C@H](O)C(=O)[C@H]32)[C@@H](C)[C@@H]1O [Compound 90]	Staphylococcus aureus, MRSA (ATCC 33591)	MIC	< 0.25 µg/mL
C=C[C@]1(C)C[C@@H](OC(=O)COc2ccc3c(c2)B(O)N(S(C)(=O)=O)N=C3)[C@]2(C)[C@H](C)CC[C@]3(C[C@H](F)C(=O)[C@H]32)[C@@H](C)[C@@H]1O [Compound 79]	Staphylococcus aureus, MRSA (ATCC 33591)	MIC	0.5 to 2 µg/mL
C=C[C@]1(C)C[C@@H](OC(=O)COc2ccc3c(c2F)B(O)OC3CN)[C@]2(C)[C@H](C)CC[C@]3(CCC(=O)[C@H]32)[C@@H](C)[C@@H]1O.Cl (some centres unmarked) [Compound 29]	Staphylococcus aureus, MRSA (ATCC 33591)	MIC	0.5 to 2 µg/mL
C=C[C@]1(C)C[C@@H](OC(=O)COc2cc(CNC(=O)OC(C)(C)C)c3c(c2)B(O)OC3)[C@]2(C)[C@H](C)CC[C@]3(C[C@H](O)C(=O)[C@H]32)[C@@H](C)[C@@H]1O [Compound 41]	Staphylococcus aureus, MRSA (ATCC 33591)	MIC	0.5 to 2 µg/mL

###

Test system: Staphylococcus aureus, MRSA (ATCC 33591)
Test: Antibacterial MIC assay (microbroth dilution, CLSI)
Assay type: cell-based
Settings: microbroth dilution, cation-adjusted Mueller-Hinton broth, 35° C. for 16-20 hours, read-out: MIC Staphylococcus aureus, MRSA (ATCC 33591)
MIC by entry:
readout_name: MIC

smi	reported_measurement
C=C[C@]1(C)C[C@@H](OC(=O)CNc2cc3c(cc2CN)COB3O)[C@]2(C)[C@H](C)CC[C@]3(CCC(=O)[C@H]32)[C@@H](C)[C@@H]1O	0.5 to 2 µg/mL
C=C[C@]1(C)C[C@@H](OC(=O)COc2ccc3c(c2)B(O)OCC3)[C@]2(C)[C@H](C)CC[C@]3(CCC(=O)[C@H]32)[C@@H](C)[C@@H]1O	< 0.25 µg/mL
C=C[C@]1(C)C[C@@H](OC(=O)COc2ccc3c(c2)B(O)N(C(=O)OC(C)(C)C)N=C3)[C@]2(C)[C@H](C)CC[C@]3(C[C@H](F)C(=O)[C@H]32)[C@@H](C)[C@@H]1O	< 0.25 µg/mL
C=C[C@]1(C)C[C@@H](OC(=O)COc2ccc3c(c2)B(O)NN=C3)[C@]2(C)[C@H](C)CC[C@]3(C[C@H](F)C(=O)[C@H]32)[C@@H](C)[C@@H]1O	< 0.25 µg/mL
C=C[C@]1(C)C[C@@H](OC(=O)CNc2ccc3c(c2)B(O)OC32CCNCC2)[C@]2(C)[C@H](C)CC[C@]3(CCC(=O)[C@H]32)[C@@H](C)[C@@H]1O	4 to 32 µg/mL
